Just for reference, PubChem BioAssay AID2060492 is where these values come from.

Test system: 695427-040-R-J1-PDC complex spheroids, viability percent T/C;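 further: spheroids exposed to compounds for seven days before readout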
assay.comment: Anticancer human tumor 695427-040-R-J1-PDC patient-derived colon adenocarcinoma cell line growth inhibition [GQUAD]
assay.setup: second compound 0.316 µM; first compound 0.000999 µM; hits give low values
Source text: DNA G-quadruplex Stabilizer Agents in Combinations in Complex Spheroids A high-throughput screen of multi-cell type tumor spheroids was designed to identify active combinations of DNA G-quadruplex stabilizer agents and targeted small molecules. […] Compounds. […] If the clinical Cmax for an agent had not been determined, the highest concentration tested was 10 microM. […]
Task for the reader: assign each of the following compounds its reported viability, T/C.
Quick note: give the figure in %, leave out the unit.

# input # assay system 695427-040-R-J1-PDC complex spheroids, viability percent T/C: give viability, T/C of CC[C@@]1(O)C(=O)OCc2c1cc1n(c2=O)Cc2cc3c(CN(C)C)c(O)ccc3nc2-1 + Cc1[nH]c2ccc(F)cc2c1-c1nc2c3cccnc3c3ncccc3c2[nH]1;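 further: spheroids exposed to compounds for seven days before readout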
# output 97.3

# input Param request: viability, T/C | system 695427-040-R-J1-PDC complex spheroids, viability percent T/C | item Cn1ncnc1[C@H]1c2n[nH]c(=O)c3cc(F)cc(c23)N[C@@H]1c1ccc(F)cc1 + Cc1cnc(CNC(=O)c2c(=O)c3ccc(N4CCCN(C)CC4)nc3n3c2sc2ccccc23)cn1;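 further: spheroids exposed to compounds for seven days before readout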
# output 65.7

# input Write viability, T/C of CCc1c2c(nc3ccc(O)cc13)-c1cc3c(c(=O)n1C2)COC(=O)[C@]3(O)CC + Cc1cnc(CNC(=O)c2c(=O)c3ccc(N4CCCN(C)CC4)nc3n3c2sc2ccccc23)cn1 ; system used: 695427-040-R-J1-PDC complex spheroids, viability percent T/C;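 further: spheroids exposed to compounds for seven days before readout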
# output 85.3

# input Quote 695427-040-R-J1-PDC complex spheroids, viability percent T/C viability, T/C for entry Cc1[nH]c2ccccc2c1CCNCc1ccc(/C=C/C(=O)NO)cc1 + CN(C)c1ccc(Nc2c3ccc(NC(=O)CCN4CCCC4)cc3nc3cc(NC(=O)CCN4CCCC4)ccc23)cc1 .
# output 98.2

# input Under 695427-040-R-J1-PDC complex spheroids, viability percent T/C: report viability, T/C of CC[C@@]1(O)C(=O)OCc2c1cc1n(c2=O)Cc2cc3c(CN(C)C)c(O)ccc3nc2-1 + CN(C)c1ccc(Nc2c3ccc(NC(=O)CCN4CCCC4)cc3nc3cc(NC(=O)CCN4CCCC4)ccc23)cc1 .
# output 97.6

# input Give viability, T/C for CCc1c2c(nc3ccc(O)cc13)-c1cc3c(c(=O)n1C2)COC(=O)[C@]3(O)CC + CN(C)c1ccc(Nc2c3ccc(NC(=O)CCN4CCCC4)cc3nc3cc(NC(=O)CCN4CCCC4)ccc23)cc1 tested on 695427-040-R-J1-PDC complex spheroids, viability percent T/C.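 Further: spheroids exposed to compounds for seven days before readout.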
# output 103

# input Quote viability, T/C with test system 695427-040-R-J1-PDC complex spheroids, viability percent T/C for CCc1c2c(nc3ccc(O)cc13)-c1cc3c(c(=O)n1C2)COC(=O)[C@]3(O)CC + Cc1[nH]c2ccc(F)cc2c1-c1nc2c3cccnc3c3ncccc3c2[nH]1;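 further: spheroids exposed to compounds for seven days before readout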
# output 99.5

# input Provide viability, T/C, recorded with 695427-040-R-J1-PDC complex spheroids, viability percent T/C, of Cc1[nH]c2ccccc2c1CCNCc1ccc(/C=C/C(=O)NO)cc1 + Cc1cnc(CNC(=O)c2c(=O)c3ccc(N4CCCN(C)CC4)nc3n3c2sc2ccccc23)cn1
# output 74.9

# input Identify measured viability, T/C obtained with 695427-040-R-J1-PDC complex spheroids, viability percent T/C for Cn1ncnc1[C@H]1c2n[nH]c(=O)c3cc(F)cc(c23)N[C@@H]1c1ccc(F)cc1 + CN(C)c1ccc(Nc2c3ccc(NC(=O)CCN4CCCC4)cc3nc3cc(NC(=O)CCN4CCCC4)ccc23)cc1 .
# output 88.2

# input Retrieve viability, T/C on 695427-040-R-J1-PDC complex spheroids, viability percent T/C; query Cc1[nH]c2ccccc2c1CCNCc1ccc(/C=C/C(=O)NO)cc1 + Cc1[nH]c2ccc(F)cc2c1-c1nc2c3cccnc3c3ncccc3c2[nH]1
# output 98.8

# input Give measured viability, T/C for Cn1ncnc1[C@H]1c2n[nH]c(=O)c3cc(F)cc(c23)N[C@@H]1c1ccc(F)cc1 + Cc1[nH]c2ccc(F)cc2c1-c1nc2c3cccnc3c3ncccc3c2[nH]1 (695427-040-R-J1-PDC complex spheroids, viability percent T/C).
# output 99.7

# input Lab note: 695427-040-R-J1-PDC complex spheroids, viability percent T/C assay, enter viability, T/C for CC[C@@]1(O)C(=O)OCc2c1cc1n(c2=O)Cc2cc3c(CN(C)C)c(O)ccc3nc2-1 + Cc1cnc(CNC(=O)c2c(=O)c3ccc(N4CCCN(C)CC4)nc3n3c2sc2ccccc23)cn1 here
# output 73.2
